Reference source: the supplement of paper PMC12042874

experiment: amyloid nucleation score (Sup35N fusion, yeast selection) (log enrichment); library NNK3; higher = more nucleation; inactive = no reads after selection;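 further: zero at mode of non-aggregating sequences after 7 days selection at 30°C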
measure: amyloid nucleation score

{"columns": ["substance", "reported.value"],
 "data": [
  ["LCAQGYDLFALCKVYWLREW", "inactive"],
  ["LQVLFSYYFENRSGDLVRDD", 0.641],
  ["SLSPDPFEFLLLSLLLRSAV", "inactive"],
  ["FVLQFSSGCYFGPD", "inactive"],
  ["TLDILLE", "inactive"],
  ["FTNFCS", "inactive"],
  ["MMTTGLLGVLTSCNSMT", "inactive"],
  ["KLEMYVARSCDCAYDRCWGR", "inactive"],
  ["CFYAISDRRSRFSIIFTYNG", "inactive"],
  ["VLAMIVRHRKYKIDFIFMLD", "inactive"],
  ["TTTAYWNESDTLRCMLV", -0.757],
  ["INWGWLPCTRTSTIGSRGRS", "inactive"],
  ["SSISVRENYFMASRVMMVGC", 0.234],
  ["LVEMNFLAVINRFICSSSLP", "inactive"],
  ["IRYALTINYSNTVL", 0.457],
  ["FFSFTISMAWKGQVTELKCQ", "inactive"],
  ["YGCGIQGLVQWTCDTGRMHC", "inactive"]
]}
